Experiment: P. aeruginosa biofilm formation inhibitors, primary screen, PAO1 strain, BacTiter-Glo luminescence, LB-PBS (AID 1144)
Conditions: 12 h, higher = more signal
What z-score was measured for each of the following?
Answers are plain numbers.

Consider the worked cases shown below.
MOLECULE | RECORDED_NUMBER
C[N+](C)(C)CCCC[C@@H]1NC(=O)[C@H]2C[C@@H](C(=O)O)[C@@H](c3ccc(O)cc3)N2C1=O | -1.19
CC1CC/C=C\[C@H]2OC34C=CCN(C(C)C)C(=O)[C@H]3N(C(C)CO)C(=O)[C@@H]4C2C(=O)O1 (stereo not given in full) | -0.657
C=C(C(=O)CC[C@@H](OC(=O)c1ccccc1-c1ccccc1C(=O)O)c1ccc(CO)o1)C(C)C | -0.306
C=C(COC)C(=O)CC[C@H](OC(C)=O)c1ccccc1OCCO | -0.0151

Let us examine a further case.
Which z-score is reported for this molecule? O=C(O)C1=CC[C@H]2C(=O)N(c3ccccc3)C(=O)[C@@H]12
0.317

* * *

Experiment: binders of probe aFGF10 on microarray, primary screen, stem cell growth factor project, biochemical, small-molecule microarray, fluorescence 635/667 (AID 1071);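 note: score merges 667 nm spot intensity and signal to noise from triplicate slides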
Conditions: higher = more signal
MEASURED_ENDPOINT: composite z-score
Answers are plain numbers.

COMPOUND_STRUCTURE | MEASURED_ENDPOINT | RECORDED_NUMBER
[N-]=[N+]=NCc1ccccc1C[C@@]1(C(N)=O)N=C(c2ccc(OCCCO)cc2)O[C@@H]1c1ccccc1N=[N+]=[N-] | composite z-score | 1.15

For the 2 compounds below, give their composite z-score values.
1. C=CCNC(=O)[C@@H]1[C@H]2C(=O)O[C@H](c3ccccc3)[C@H](c3ccccc3)N2[C@H](c2ccc(OCCO)cc2)[C@@]12C(=O)Nc1ccc(C#CCNC(N)=O)cc12
2. CC(C)(C)OC(=O)N1[C@@H](C=C(Br)Br)COC1(C)C

1. 0.169
2. 0.348

* * *

Assay: PSAC antagonists in infected red cells, primary screen, cell-based, P. falciparum Indochina, OD700, 2 h (AID 1155);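 note: lysis reports solute entry through the parasite surface anion channel PSAC; channel blockers reduce lysis of infected cells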
Settings: P. falciparum Indochina infected erythrocytes, osmotic lysis OD700; higher = more signal, called active from +8 up or from −8 down
Parameter threshold = 4. Response is met when z-score meets or exceeds it, else not met.

Worked examples follow.
COMPOUND_STRUCTURE | CLASSIFICATION
C=CCNC(=O)[C@H]1[C@@H]2C(=O)O[C@@H](c3ccccc3)[C@@H](c3ccccc3)N2[C@@H](c2ccc(OCCO)cc2)[C@]12C(=O)Nc1ccc(C#Cc3ccc(OC)cc3)cc12 | not met
C=C[C@H](OC)[C@@H](O)c1ccc(OC)c(O)c1 | not met
COc1cccc(C)c1NC(=O)O[C@H]1[C@H](OC(=O)Nc2ccc3c(c2)OCO3)[C@H](OC(=O)Nc2ccc3c(c2)OCO3)[C@@H](OC)O[C@@H]1CO | not met
COCCOC(=O)N1C(=O)[C@@]2(c3cc(C#CC4=CCCCC4)ccc31)[C@H](C(=O)N1CCCCCCC1)[C@H]1C(=O)O[C@H](c3ccccc3)[C@H](c3ccccc3)N1[C@@H]2c1ccccc1OCCO | not met
[N-]=[N+]=NCc1ccccc1C[C@@]1(C(=O)NCCN2CCOCC2)N=C(c2ccc(OCCCO)cc2)O[C@@H]1c1ccccc1 | met
[N-]=[N+]=NCc1ccccc1[C@H]1OC(c2ccc(OCCCO)cc2)=N[C@@]1(Cc1ccccc1N=[N+]=[N-])C(=O)O | not met

// inclusive: z-score at least 4? input: C=C(COC)/C(=C/C[C@@H](OC(C)=O)c1cccc(OCCO)c1)c1cnc2ccccc2c1
met
